- protocolSummary: in vivo
- recordedConditions: male, ICR, mouse, po, 3 mg/kg, t1/2, mouse, oral gavage, Liver
measuredParameter: half-life (h)

Known half-life results, listed for orientation:
[
  {
    "molecularString": "Cc1ccc(-c2cc(C(F)(F)F)nn2-c2ccc(S(N)(=O)=O)cc2)cc1",
    "half-life (h)": 3.6
  },
  {
    "molecularString": "OC[C@H]1O[C@@H](c2ccc(Cl)c(Cc3ccc(O[C@H]4CCOC4)cc3)c2)[C@H](O)[C@@H](O)[C@@H]1O",
    "half-life (h)": 2.2
  },
  {
    "molecularString": "CC#CCn1c(N2CCC[C@@H](N)C2)nc2c1c(=O)n(Cc1nc(C)c3ccccc3n1)c(=O)n2C",
    "half-life (h)": 2.8
  }
]

P: COc1ccc2c(c1)c(CC(=O)O)c(C)n2C(=O)c1ccc(Cl)cc1
Q: OC[C@H]1O[C@@H](c2ccc(F)c(Cc3cc4ccccc4s3)c2)[C@H](O)[C@@H](O)[C@@H]1O
Ask | Pick one, P or Q : lowest reported half-life. Give the chosen item's label as your response.
Reply | Q

###

- recordedConditions: normal mice, oral gavage, 3mg/kg; Kidney; 9h
measuredParameter: Drug concentration, time course

Known Drug concentration, time course results, listed for orientation:
[
  {
    "molecule": "CC#CCn1c(N2CCC[C@@H](N)C2)nc2c1c(=O)n(Cc1nc(C)c3ccccc3n1)c(=O)n2C",
    "value": 9500
  },
  {
    "molecule": "CC(C)Cc1ccc(C(C)C(=O)O)cc1 (stereo not shown)",
    "value": 9500
  },
  {
    "molecule": "Cc1ccc(-c2cc(C(F)(F)F)nn2-c2ccc(S(N)(=O)=O)cc2)cc1",
    "value": 6480
  }
]

1: OC[C@H]1O[C@@H](c2ccc(F)c(Cc3cc4ccccc4s3)c2)[C@H](O)[C@@H](O)[C@@H]1O
2: OC[C@H]1O[C@@H](c2ccc(Cl)c(Cc3ccc(O[C@H]4CCOC4)cc3)c2)[C@H](O)[C@@H](O)[C@@H]1O
3: Cc1ccc([C@@H]2O[C@H](CO)[C@@H](O)[C@H](O)[C@H]2O)cc1Cc1ccc(-c2ccc(F)cc2)s1
4: CC1=C(C(=O)O)N2C(=O)[C@@H](NC(=O)[C@H](N)c3ccccc3)[C@H]2SC1
Ask | Sort ascending by Drug concentration, time course. Answer format: the labels, ordered as requested.
Reply | 2, 3, 4, 1
(2: 550, 3: 900, 4: 2390, 1: 8000)

###

- recordedConditions: normal mice, oral gavage, 3mg/kg; Kidney; 6h
measuredParameter: Drug concentration, time course

Known Drug concentration, time course results, listed for orientation:
[
  {
    "molecule": "COc1ccc2c(c1)c(CC(=O)O)c(C)n2C(=O)c1ccc(Cl)cc1 [Indomethacin, indomethacin]",
    "Drug concentration, time course": 5200
  },
  {
    "molecule": "Cn1c(=O)cc(N2CCC[C@@H](N)C2)n(Cc2ccccc2C#N)c1=O [Alogliptin, alogliptin]",
    "Drug concentration, time course": 4300
  },
  {
    "molecule": "CC1(C)S[C@@H]2[C@H](NC(=O)[C@H](N)c3ccc(O)cc3)C(=O)N2[C@H]1C(=O)O [Amoxicillin, amoxicillin]",
    "Drug concentration, time course": 5670
  },
  {
    "molecule": "CC1=C(C(=O)O)N2C(=O)[C@@H](NC(=O)[C@H](N)c3ccccc3)[C@H]2SC1 [Cephalexin, cephalexin]",
    "Drug concentration, time course": 5630
  }
]

P: Cc1ccc(-c2cc(C(F)(F)F)nn2-c2ccc(S(N)(=O)=O)cc2)cc1 [Celecoxib, celecoxib]
Q: OC[C@H]1O[C@@H](c2ccc(Cl)c(Cc3ccc(O[C@H]4CCOC4)cc3)c2)[C@H](O)[C@@H](O)[C@@H]1O [Jardiance]
Ask | Just curious, which one has the larger Drug concentration, time course reading, P or Q ? Give the chosen item's label as your response.
Reply | P
(P: 8900, Q: 1200)
